logP overview
Number, no unit, nothing else.

Sample answers from the record:
Molecule	logP
COc1cc2c(cc1OC)C13CCN4CC5CCOC6CC(=O)N2C1C6C5CC43 (stereo not drawn)	0.84
CNC(=O)Oc1cc(C)c(C)c(C)c1	2.66
CCCCCCCCOC(N)=O	2.84

The molecule identified as CC(C)(C)C(=O)NC(CO)C(O)c1ccc([N+](=O)[O-])cc1 (stereo not drawn) registered its logP at 1.33

The molecule identified as "CS(=O)(=O)c1ccc(N)cc1" registered its logP at -0.12

The molecule identified as "C[Se]c1ccccc1" registered its logP at 2.87

The molecule identified as "Clc1ccc2nccnc2c1" registered its logP at 2.1

###

Value Kind: logP
Number, no unit, nothing else.

Sample answers from the record:
Compound	Value Kind	Numeric Readout
C[C@]12C[C@H](O)[C@H]3[C@@H](CCC4=CC(=O)CC[C@@]43C)[C@@H]1CC[C@@H]2C(=O)CO	logP	1.94
CN(C)N=O	logP	-0.57
O=C(O)c1cccc(Oc2ccccc2)c1	logP	3.91
O=C1NC(=S)NC(=O)C1C(=O)Nc1ccccc1	logP	0.14
COc1cc(CC(C)N)c(OC)cc1C (stereo not drawn)	logP	2.24

The compound identified as "C=CCOc1cc(N)ccc1C(=O)O" registered its logP at 1.25

The compound identified as "CNC(=O)N(C)c1ccccc1" registered its logP at 1.02

The compound identified as "c1ccc2c(c1)cnc1ccccc12" registered its logP at 3.48

###

Response field label: string, one of YES (logP strictly below 2) or NO.

Some entries whose results are on file:
Compound	Assigned Category
O=C(NCc1ccc(O)cc1)c1ccccc1	YES
CCCNCc1cccnc1	YES
CCn1cc(C)c(=O)[nH]c1=O	YES
Nc1ncnc2nc(-c3ccccc3)[nH]c12	NO
CN(C)c1ccc(N=Nc2ccccc2)cc1	NO

Problem: For the compound "c1ccc(N2CCCC2)cc1" , is logP under 2?
NO

Problem: For the compound CC(=O)OC1(C(=O)CO)CCC2C3CCC4=CC(=O)C=CC4(C)C3C(=O)CC21C (stereo not drawn) , is logP under 2?
NO

Problem: For the compound "C1OCOCO1" , is logP under 2?
YES

###

logP overview
Peptide text beside a SMILES is read from it. * marks the point of attachment. NHtBu = CC(C)(C)N*
Number, no unit, nothing else.

Sample answers from the record:
Compound	Numeric Readout
CC(=O)c1cccnc1	0.43
CN(C)C(N(C)C)=S(I)c1cccc([N+](=O)[O-])c1 (stereo unspecified)	-0.88
NN(c1ccccc1)c1ccccc1	2.8
CNc1cnn(-c2cccc(C(F)(F)F)c2)c(=O)c1Cl	2.3
COc1c(Cl)ccc(Cl)c1C(=O)O	2.21
COc1cccc(C)c1	2.66
CN(C)c1cccc(O)c1	1.56
CCOC(=O)C(C(=O)OCC)=C(C(=O)OCC)C(=O)OCC	2.63

The compound identified as "C=C(C)CC1(CC)C(=O)NC(=S)NC1=O" registered its logP at 2.19

The compound identified as "CC(=Cc1ccccc1)[N+](=O)[O-]" registered its logP at 2.52

The compound identified as "CCCCNC1=CC(=O)c2ccccc2C1=O" registered its logP at 3.11

The compound identified as "CC(=O)Nc1cccc(N(C)C)c1" registered its logP at 1.29

The compound identified as CC(=O)Nc1ccc(OCC(O)CNC(C)C)cc1 (stereo unspecified) registered its logP at 0.79

The compound identified as "O=C1OC2(CCCC2)c2ccccc21" registered its logP at 2.56

The compound identified as "CCCCCCNC(=O)c1ccc(S(N)(=O)=O)cc1" registered its logP at 2.05

The compound identified as CC(=O)NC(C)C(=O)NC(CC(=O)O)C(=O)NC(C)C(=O)NC(C)(C)C (stereo not drawn) (Ac-Ala-Asp-Ala-NHtBu; configuration not given here) registered its logP at -0.74

The compound identified as "O=C(O)c1ccccc1C(=O)O" registered its logP at 0.73

The compound identified as "Nc1ccc(C(=O)O)c(Br)c1" registered its logP at 1.49

The compound identified as "O=C1C=CC(=O)C=C1" registered its logP at 0.2

The compound identified as "O=Cc1c[nH]c2ccccc12" registered its logP at 1.68

The compound identified as CC(=O)OC1CCCCC1NC(=O)N(CCCl)N=O (stereo unspecified) registered its logP at 1.98

The compound identified as "Nc1c2ccccc2nc2ccccc12" registered its logP at 2.74

The compound identified as "COc1ccc(OC(=O)c2ccc(N)cc2O)cc1" registered its logP at 3.07

The compound identified as "CNc1ccc([N+](=O)[O-])cc1" registered its logP at 2.04

The compound identified as "OCCN1CCN(CCCN2c3ccccc3Sc3ccc(C(F)(F)F)cc32)CC1" registered its logP at 4.36

The compound identified as "O=[N+]([O-])c1ccccc1Nc1ccccc1" registered its logP at 3.66

The compound identified as "Cc1cc2ccccc2n1C" registered its logP at 2.82

The compound identified as "O=C(O)COc1cccc(NC(=O)c2ccccc2)c1" registered its logP at 1.99

The compound identified as "CCOC(=O)CN(C(=O)CCl)c1c(CC)cccc1CC" registered its logP at 3.6

The compound identified as "CN(C)C(=O)OCc1cccc(Cl)c1" registered its logP at 2.82

The compound identified as "CCn1cnc2c(NC(C)=O)ncnc21" registered its logP at -0.41

The compound identified as CCCC(=O)OC1(C(=O)CCl)C(C)CC2C3CCC4=CC(=O)C=CC4(C)C3(F)C(O)CC21C (stereo unspecified) registered its logP at 3.63

The compound identified as "CCCCOC(=O)c1cc(O)c(O)c(O)c1" registered its logP at 2.41

The compound identified as "CCCCn1cnc2c(N)ncnc21" registered its logP at 1.25

The compound identified as "O=C(O)c1ccc2cccccc1-2" registered its logP at 2.88

The compound identified as "CCCCCCCCCCCCOS(=O)(=O)[O-].[Na+]" registered its logP at 1.6
